- TARGET_SYSTEM: LYNb (Homo sapiens, UniProt P07948)
- Construct: purchased Nanosyn (contract screening)
- Sequence (P07948 1-491 isoform P07948-2): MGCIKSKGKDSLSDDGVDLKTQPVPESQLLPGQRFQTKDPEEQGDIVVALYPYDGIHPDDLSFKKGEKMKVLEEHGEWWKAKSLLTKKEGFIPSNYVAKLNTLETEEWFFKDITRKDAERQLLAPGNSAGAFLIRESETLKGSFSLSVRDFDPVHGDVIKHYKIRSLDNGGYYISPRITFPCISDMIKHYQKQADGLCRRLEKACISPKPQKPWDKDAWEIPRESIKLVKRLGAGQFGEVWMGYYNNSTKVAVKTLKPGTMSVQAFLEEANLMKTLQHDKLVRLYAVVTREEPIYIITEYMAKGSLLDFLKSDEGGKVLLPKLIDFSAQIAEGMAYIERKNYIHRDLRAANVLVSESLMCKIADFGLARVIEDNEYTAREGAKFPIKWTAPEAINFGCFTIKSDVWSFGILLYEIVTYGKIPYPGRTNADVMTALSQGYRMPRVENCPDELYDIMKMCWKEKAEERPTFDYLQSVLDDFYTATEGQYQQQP
- EXPERIMENT_DESCRIPTION: Kinase panel enzymatic inhibition assay (Nanosyn)
- Format: biochemical
- STATED_CONDITIONS: compound 5 μM; ATP at Km; 30-minute pre-incubation
This listing pairs compounds with measured inhibition at 5 µM.

COMPOUND: CCOC(=O)Nc1cn2nc(Nc3cc(NC(=O)c4cc(S(C)(=O)=O)n(-c5ccc(F)cc5)n4)ccc3C)ccc2n1 [Ex15]
OBSERVED: ≥ 95%
//
COMPOUND: Cc1ccc(NC(=O)c2cc([S+](C)[O-])n(-c3ccc(F)cc3)n2)cc1-c1cc(N2CCOCC2)c(=O)n(C)c1 (stereo not shown) [Ex11]
OBSERVED: < 79%
//
COMPOUND: CCOC(=O)Nc1cn2nc(Nc3cc(NC(=O)c4cc([S+](C)[O-])n(-c5ccc(F)cc5)n4)ccc3C)ccc2n1 (stereo not shown) [Ex18]
OBSERVED: < 79%
//
COMPOUND: Cc1ccc(NC(=O)c2cc(S(C)(=O)=O)n(-c3ccc(F)cc3)n2)cc1Nc1ccc2ncn(C)c(=O)c2c1 [Ex4]
OBSERVED: < 79%
//
COMPOUND: Cc1ccc(NC(=O)c2cc(S(C)(=O)=O)n(-c3ccc(F)cc3)n2)cc1C#Cc1cnc2cccnn12 [Ex14]
OBSERVED: ≥ 95%

QUERY: What measured inhibition at 5 µM goes with CNC(=O)c1cc(Oc2ccc(NC(=O)c3cc(S(C)(=O)=O)n(-c4ccc(F)cc4)n3)c(F)c2)ccn1 [Ex17] ?
RESULT: < 79%

QUERY: What measured inhibition at 5 µM goes with CSc1cc(C(=O)Nc2cc(Oc3ccnc(C(=O)NC4CNC4)c3)ccc2F)nn1-c1ccc(F)cc1 [Ex8] ?
RESULT: < 79%
